experimental.system: human MET kinase del Ex14 (Homo sapiens, UniProt P08581, DEL963-1009)
Construct: GST-tagged recombinant human MET kinase domain
Sequence (P08581 with tags, fused parts or gaps DEL963-1009 limits assumed): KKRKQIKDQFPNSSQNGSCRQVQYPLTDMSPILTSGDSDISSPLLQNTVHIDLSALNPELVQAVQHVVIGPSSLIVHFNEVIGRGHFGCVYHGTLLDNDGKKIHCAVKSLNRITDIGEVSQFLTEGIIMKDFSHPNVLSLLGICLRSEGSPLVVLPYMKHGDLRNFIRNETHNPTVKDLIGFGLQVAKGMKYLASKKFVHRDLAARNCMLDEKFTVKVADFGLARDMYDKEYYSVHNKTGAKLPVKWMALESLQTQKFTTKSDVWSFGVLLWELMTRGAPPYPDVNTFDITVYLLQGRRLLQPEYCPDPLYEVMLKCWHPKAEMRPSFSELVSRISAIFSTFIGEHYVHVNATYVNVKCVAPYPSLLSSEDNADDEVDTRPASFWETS
test.details: c-Met Enzyme Assay, del Ex14 mutant
condition.details: averaged IC50; del Ex14 5 nM; 60-minute incubation at 22° C.; read-out: Del14 IC50
pIC50: −log10 of the molar value.
measured.quantity: pIC50

Below, each entry is followed by its recorded pIC50 result.
1. COc1cc2nccc(Oc3ccc(NC(=O)c4cn(CC(=O)N(C)C)cc(-c5ccc(F)cc5F)c4=O)nc3)c2cc1OC [Example 13]; 8.31
2. CNC(=O)Cn1cc(C(=O)Nc2ccc(Oc3ccnc4cc(OC)c(OC)cc34)cn2)c(=O)c(-c2ccc(F)cc2)c1 [Example 22]; 8.51

P: CCOc1ccc2c(Oc3ccc(NC(=O)c4cn(C(C)C)cc(-c5ccc(F)cc5)c4=O)nc3)ccnc2c1 [Example 52]
Q: COc1cc2nccc(Oc3ccc(NC(=O)c4cn(C(C)C)cc(-c5ccc(F)cc5C)c4=O)nc3)c2cc1OC [Example 19]
R: COc1cc2nccc(Oc3ccc(NC(=O)c4c[nH]cc(-c5ccc(F)cc5)c4=O)nc3)c2cc1OC [Example 26]
S: COc1ccc(-c2cn(C(C)C)cc(C(=O)Nc3ccc(Oc4ccnc5cc(OC)c(OC)cc45)cn3)c2=O)c(F)c1 [Example 31]
Order each entry by recorded pIC50, climbing from the minimum. Returns: the labels arranged in the requested order.
S, P, R, Q

I: COc1cc2nccc(Oc3ccc(NC(=O)c4cn(C)cc(-c5ccc(F)cc5)c4=O)nc3)c2cc1OC [Example 2]
II: COc1cc2nccc(Oc3ccc(NC(=O)c4cn(CCC(C)C)cc(-c5ccc(F)cc5F)c4=O)nc3)c2cc1OC [Example 36]
Among I and II , whose measured pIC50 is the smaller figure? Which one? Tell me its label.
I
(I: 8.28, II: 8.62)

1: COc1cc2nccc(Oc3ccc(NC(=O)c4cn(CCN(C)C)cc(-c5ccc(Cl)cc5)c4=O)nc3)c2cc1OC [Example 42]
2: COc1cc2nccc(Oc3ccc(NC(=O)c4cn(C(C)C)cc(-c5ccc(F)c(F)c5)c4=O)nc3)c2cc1OC [Example 6]
Exercise: compare 1 and 2 ; which one has the greater pIC50? Which one? Tell me its label.
1
(1: 8.72, 2: 8.11)
